Origin of measurements: PubChem BioAssay (NCI)

test system: MDA-MB-468 breast; assay: NCI-60 one-dose screen, 48 h; conditions: 10 µM unless noted
Compounds without any hit were thinned out: in the full panel of roughly 83,000, 20% have a hit. The source made the active and inactive calls. The calls were made as follows: active = growth percent below 10; inactive = the rest.
// one of active, inactive, no free text

Worked examples, 3 molecules total:
>  <Molecule>
COc1ccc2c(c1)C/C(=C\c1cc(-c3cc(OC)c(OC)c(OC)c3)n[nH]1)C2=O

>  <Assigned class>
inactive

$$$$
>  <Molecule>
O=C1Nc2ccccc2C1=NC1CCCCC1

>  <Assigned class>
inactive

$$$$
>  <Molecule>
CCCc1ccnc(NS(=O)(=O)c2ccc(N)cc2)n1

>  <Assigned class>
active

$$$$

Exam item: Outcome logged for CCCCN(CCCC)CCC(=O)c1ccc(OC)c2ccccc12 in this assay:
Marked response: active

Exam item: Outcome logged for O=C(Nc1cccc(-n2cc(-c3ccncc3)c(-c3cc(O)cc(Cl)c3)n2)c1)c1ccc(N2CCOCC2)c(C(F)(F)F)c1 in this assay:
Marked response: inactive

Exam item: Outcome logged for O=C1NCc2ccc3c(-c4cccc(Cl)c4)c[nH]c3c21 in this assay:
Marked response: inactive
